Catalogue of MIC readings, one per entry.
# Test system: Mycobacterium tuberculosis
# PROTOCOL DETAILS: Antitubercular activity against Mycobacterium tuberculosis H37Rv ATCC 27294 after 28 days by two-fold serial dilution method
# Type: functional
# RUN CONDITIONS: H37Rv ATCC 27294, 672 h

I would be grateful if you could share the reported MIC for Cc1nc2c(cc1Cn1cc(-c3ccccc3)nn1)CCCc1ccccc1-2 .
25 µg/mL

I would be grateful if you could share the reported MIC for CCCCCc1ccc(-c2cn(Cc3cc4c(nc3C)-c3cc(C)c(C)cc3CCC4)nn2)cc1 .
> 25 µg/mL

I would be grateful if you could share the reported MIC for Cc1ccc(-c2cn(Cc3cc4c(nc3C)-c3cc(C)c(C)cc3CCC4)nn2)cc1 .
12.5 µg/mL

I would be grateful if you could share the reported MIC for Cc1ccc(-c2cn(Cc3cc4c(nc3C)-c3ccccc3CCC4)nn2)cc1 .
12.5 µg/mL

I would be grateful if you could share the reported MIC for Cc1nc2c(cc1Cn1cc(-c3cccnc3)nn1)CCCc1ccccc1-2 .
6.25 µg/mL

* * *

# System: Mycobacterium tuberculosis
# PROTOCOL DETAILS: Antitubercular activity against Mycobacterium tuberculosis H37Rv ATCC 27294 after 28 days by two-fold serial dilution method
# Assay type: functional
# RUN CONDITIONS: H37Rv ATCC 27294, 672 h
MEASURED QUANTITY: MIC (µg/mL)
Provide the reading as a plain figure in µg/mL.

Consider the reported MIC for these compounds:
INSERT INTO measurements (smiles_notation, recorded_result) VALUES
  ('CC[C@@H](CO)NCCN[C@@H](CC)CO', 3.13),
  ('COc1cccc(-c2cn(Cc3cc4c(nc3C)-c3cc(C)c(C)cc3CCC4)nn2)c1', 25),
  ('Cc1cc2c(cc1C)-c1nc(C)c(Cn3cc(-c4cc5ccccc5c5ccccc45)nn3)cc1CCC2', 1.56),
  ('Cc1cc2c(cc1C)-c1nc(C)c(Cn3cc(-c4ccccn4)nn3)cc1CCC2', 25),
  ('CO[C@H]1/C=C/O[C@@]2(C)Oc3c(C)c(O)c4c(O)c(c(/C=N/N5CCN(C)CC5)c(O)c4c3C2=O)NC(=O)/C(C)=C\C=C\[C@H](C)[C@H](O)[C@@H](C)[C@@H](O)[C@@H](C)[C@H](OC(C)=O)[C@@H]1C', 0.2);

I would be grateful if you could share the reported MIC for Cc1nc2c(cc1Cn1cc(-c3ccsc3)nn1)CCCc1ccccc1-2 .
12.5

I would be grateful if you could share the reported MIC for NNC(=O)c1ccncc1 .
0.1

* * *

# Tested on: Mycobacterium tuberculosis
# PROTOCOL DETAILS: Antitubercular activity against Mycobacterium tuberculosis H37Rv ATCC 27294 after 28 days by two-fold serial dilution method
# Format: functional
# RUN CONDITIONS: H37Rv ATCC 27294, 672 h
MEASURED QUANTITY: MIC (µg/mL)
Provide the reading as a plain figure in µg/mL.

Consider the reported MIC for these molecules:
INSERT INTO results (smiles_notation, recorded_result) VALUES
  ('Cc1cc2c(cc1C)-c1nc(C)c(Cn3cc(-c4ccccc4)nn3)cc1CCC2', 25),
  ('CCCCCc1ccc(-c2cn(Cc3cc4c(nc3C)-c3ccccc3CCC4)nn2)cc1', 12.5),
  ('CCCCCCc1cn(Cc2cc3c(nc2C)-c2ccccc2CCC3)nn1', 1.56);

Kindly consider the entry below.
Lab request: please report MIC under test system Mycobacterium tuberculosis for CCCCCCc1cn(Cc2cc3c(nc2C)-c2cc(C)c(C)cc2CCC3)nn1
12.5

* * *

# System: Mycobacterium tuberculosis
# PROTOCOL DETAILS: Antitubercular activity against Mycobacterium tuberculosis H37Rv ATCC 27294 after 28 days by two-fold serial dilution method
# Type: functional
# RUN CONDITIONS: H37Rv ATCC 27294, 672 h
Catalogue of MIC readings, one per entry.

Consider the reported MIC for these molecules:
INSERT INTO results (smiles_notation, measured_quantity, recorded_result) VALUES
  ('COc1cccc(-c2cn(Cc3cc4c(nc3C)-c3ccccc3CCC4)nn2)c1', 'MIC', '> 25 µg/mL'),
  ('Cc1cc2c(cc1C)-c1nc(C)c(Cn3cc(-c4ccsc4)nn3)cc1CCC2', 'MIC', '12.5 µg/mL'),
  ('COc1ccc2cc(-c3cn(Cc4cc5c(nc4C)-c4ccccc4CCC5)nn3)ccc2c1', 'MIC', '25 µg/mL');

Lab request: please report MIC under test system Mycobacterium tuberculosis for Cc1cc2c(cc1C)-c1nc(C)c(Cn3cc(-c4cccnc4)nn3)cc1CCC2
6.25 µg/mL

Lab request: please report MIC under test system Mycobacterium tuberculosis for Cc1nc2c(cc1Cn1cc(-c3ccccn3)nn1)CCCc1ccccc1-2
12.5 µg/mL

Lab request: please report MIC under test system Mycobacterium tuberculosis for COc1ccc2cc(-c3cn(Cc4cc5c(nc4C)-c4cc(C)c(C)cc4CCC5)nn3)ccc2c1
25 µg/mL
